Assay Text: Brain pharmacokinetics and brain/plasma ratio in male CD-1 mice (1 mg/kg i.v.)
Type: in vivo
Measurement Setup: male, CD-1, mouse, brain/plasma, iv, 1 mg/kg, 1 mg/kg bolus i.v., 2 h; read-out: Brain/plasma concentration ratio, Mean
Measured Property: Kp at 2 h

{"Molecule": "CCn1c(=O)c2c(nc(/C=C/c3ccc(OC(F)F)c(OC(F)F)c3)n2C)n(CC)c1=O", "Measured Property": "Kp at 2 h", "Recorded Number": 0.657}
{"Molecule": "CCn1c(=O)c2c(nc(/C=C/c3ccc(OC)c(OC)c3)n2C)n(CC)c1=O [Istradefylline, reference compound]", "Measured Property": "Kp at 2 h", "Recorded Number": 0.655}

* * *

Assay Text: Brain pharmacokinetics and brain/plasma ratio in male CD-1 mice (1 mg/kg i.v.)
Assay type: in vivo
Measurement Setup: male, CD-1, mouse, brain, intravenous, 1 mg/kg, 1 mg/kg bolus i.v., 8 h, individual animals 1-3; read-out: Brain concentration
Measured Property: concentration at 8 h (ng/g)

{"Compound": "CCn1c(=O)c2c(nc(/C=C/c3ccc(OC)c(OC)c3)n2C)n(CC)c1=O [Istradefylline, reference compound]", "Measured Property": "concentration at 8 h", "Unit Spec": "ng/g", "Recorded Number": 33.4}

[I] CCn1c(=O)c2c(nc(/C=C/c3ccc(OC(F)F)c(OC(F)F)c3)n2C)n(CC)c1=O [Formula I]
[II] CCn1c(=S)c2c(nc(/C=C/c3ccc(OC)c(OC)c3)n2C)n(CC)c1=O [Formula III]
Higher concentration at 8 h: I or II ? Respond using the label that marks the chosen record. I

* * *

Assay Text: Brain pharmacokinetics and brain/plasma ratio in male CD-1 mice (1 mg/kg i.v.)
Format: in vivo
Measurement Setup: male, CD-1, mouse, brain, intravenous, 1 mg/kg, 1 mg/kg bolus i.v., 5 min, individual animals 1-3; read-out: Brain concentration
Measured Property: concentration at 5 min (ng/g)

{"Compound": "CCn1c(=S)c2c(nc(/C=C/c3ccc(OC)c(OC)c3)n2C)n(CC)c1=O", "Recorded Number": 490}

[P] CCn1c(=O)c2c(nc(/C=C/c3ccc(OC)c(OC)c3)n2C)n(CC)c1=O [Istradefylline, reference compound]
[Q] CCn1c(=O)c2c(nc(/C=C/c3ccc(OC(F)F)c(OC(F)F)c3)n2C)n(CC)c1=O
Smaller concentration at 5 min value, P vs Q ? API: response body contains the label of the selected item. P
(P: 545 ng/g, Q: 818 ng/g)

* * *

Assay Text: Brain pharmacokinetics and brain/plasma ratio in male CD-1 mice (1 mg/kg i.v.)
Type: in vivo
Measurement Setup: male, CD-1, mouse, brain, intravenous, 1 mg/kg, 1 mg/kg bolus i.v., 1 h, individual animals 1-3; read-out: Brain concentration
Measured Property: concentration at 1 h (ng/g)

{"Molecule": "CCn1c(=O)c2c(nc(/C=C/c3ccc(OC)c(OC)c3)n2C)n(CC)c1=O [Istradefylline, reference compound]", "concentration at 1 h (ng/g)": 225}
{"Molecule": "CCn1c(=S)c2c(nc(/C=C/c3ccc(OC)c(OC)c3)n2C)n(CC)c1=O", "concentration at 1 h (ng/g)": 262}
{"Molecule": "CCn1c(=O)c2c(nc(/C=C/c3ccc(OC(F)F)c(OC(F)F)c3)n2C)n(CC)c1=O", "concentration at 1 h (ng/g)": 269}

All values here come from patent US12570656B2.
